The reported numbers originate from PubChem BioAssay (NCI).

Tested on: OVCAR-4 ovarian
measurement_description: NCI tumour cell line growth inhibition, 48 h
Listing of entries alongside the reported GI50.

item_smiles: CCOC(=O)c1c(C)n2c(=O)cc(C)c3c(OC(C)=O)c(OC(C)=O)cc1c32
assayed_target: OVCAR-4 ovarian
GI50: 3.29 µM
//
item_smiles: COc1ccc(Cc2cnc(NC(=O)c3sc4ccccc4c3Cl)s2)cc1
assayed_target: OVCAR-4 ovarian
GI50: 2.82 µM
//
item_smiles: C#COc1cccc(Nc2ncnc3ncc(NC(=O)CCl)cc23)c1
assayed_target: OVCAR-4 ovarian
GI50: > 62.5 µM
//
item_smiles: COc1cc([C@@H]2c3cc4c(cc3[C@@H](O[C@@H]3O[C@@H]5CO[C@@H](c6cccs6)O[C@H]5[C@H](O)[C@H]3O)[C@H]3COC(=O)[C@H]23)OCO4)cc(OC)c1O
assayed_target: OVCAR-4 ovarian
GI50: 2.83 µM
//
item_smiles: COc1cc2c3c(n(CCN(C)C)c(=O)c2cc1OC)-c1cc2c(cc1C3=O)OCO2
assayed_target: OVCAR-4 ovarian
GI50: > 38.2 µM
//
item_smiles: C#CCNC(=O)CC[C@]1(C)[C@H]2CC[C@@H]3[C@@H]([C@@](C)(O)CCC=C(C)C)CC[C@@]3(C)[C@]2(C)CC[C@H]1C(=C)C
assayed_target: OVCAR-4 ovarian
GI50: 43.6 µM
//
item_smiles: CN(C)CCN=Cc1c2ccccc2c(=O)n2c1oc1ccccc12
assayed_target: OVCAR-4 ovarian
GI50: 18.4 µM
//
item_smiles: CC(=O)OC[C@]12CC[C@@H]([C@@H](C)C(N)=O)[C@@H]1[C@H]1CC[C@@H]3[C@@]4(C)CC[C@H](OC(C)=O)C(C)(C)[C@@H]4CC[C@@]3(C)[C@]1(C)CC2
assayed_target: OVCAR-4 ovarian
GI50: 4.72 µM
